protocol: Inhibition of SMCHD1 (unknown origin) incubated for 1 hr by colloidal coomassie staining based LC-MS/MS analysis
reported_endpoint: pIC50
Please keep in mind that pIC50 is minus log10 of the molar concentration; only the number is needed.

Input: Could you tell me which pIC50 is on file for `CCNC(=O)C[C@@H]1N=C(c2ccc(Cl)cc2)c2cc(OC)ccc2-n2c(C)nnc21` ?
Output: 5.97

----------
protocol: Binding affinity against RFC1 (unknown origin) assessed as apparent dissociation constant incubated for 1 hr by colloidal coomassie staining based LC-MS/MS analysis
reported_endpoint: Kd (nM)
Give the number; nM is assumed, so skip it.

Input: Value lookup for Kd; key = `CCNC(=O)C[C@@H]1N=C(c2ccc(Cl)cc2)c2cc(OC)ccc2-n2c(C)nnc21`
Output: 54

----------
protocol: Inhibition of LENG8 (unknown origin) incubated for 1 hr by colloidal coomassie staining based LC-MS/MS analysis
reported_endpoint: pIC50
A value of pIC50 is the negative decimal logarithm of a concentration given in moles per litre.

Input: Param item = `CCNC(=O)C[C@@H]1N=C(c2ccc(Cl)cc2)c2cc(OC)ccc2-n2c(C)nnc21` ; retrieve measured pIC50.
Output: 7.00

----------
protocol: Inhibition of PSMD11 (unknown origin) incubated for 1 hr by colloidal coomassie staining based LC-MS/MS analysis
reported_endpoint: IC50 (nM)
Use nM as the unit, but write only the number.

Input: Given the compound `CCNC(=O)C[C@@H]1N=C(c2ccc(Cl)cc2)c2cc(OC)ccc2-n2c(C)nnc21` , what is its reported IC50?
Output: 60

----------
protocol: Inhibition of INTS8 (unknown origin) incubated for 1 hr by colloidal coomassie staining based LC-MS/MS analysis
pIC50: −log10 of the molar value.
reported_endpoint: pIC50

Input: Would you mind telling me what pIC50 value was observed for `CCNC(=O)C[C@@H]1N=C(c2ccc(Cl)cc2)c2cc(OC)ccc2-n2c(C)nnc21` ?
Output: < 5.00

----------
protocol: Inhibition of RPN2 (unknown origin) incubated for 1 hr by colloidal coomassie staining based LC-MS/MS analysis
pIC50: −log10 of the molar value.
reported_endpoint: pIC50

Input: Fill blank: measured pIC50 of the compound `CCNC(=O)C[C@@H]1N=C(c2ccc(Cl)cc2)c2cc(OC)ccc2-n2c(C)nnc21` is ____.
Output: < 5.00

----------
protocol: Binding affinity against DSG1 (unknown origin) assessed as apparent dissociation constant incubated for 1 hr by colloidal coomassie staining based LC-MS/MS analysis
reported_endpoint: pKd
// pKd here means minus log10 of the molar concentration (mol/L)

Input: # pKd lookup, item `CCNC(=O)C[C@@H]1N=C(c2ccc(Cl)cc2)c2cc(OC)ccc2-n2c(C)nnc21`
Output: 5.34

----------
protocol: Inhibition of HIST1H2BA (unknown origin) incubated for 1 hr by colloidal coomassie staining based LC-MS/MS analysis
reported_endpoint: IC50

Input: What does the data say about its IC50? Entry: `CCNC(=O)C[C@@H]1N=C(c2ccc(Cl)cc2)c2cc(OC)ccc2-n2c(C)nnc21`
Output: > 10 µM

----------
protocol: Binding affinity against PSME3 (unknown origin) assessed as apparent dissociation constant incubated for 1 hr by colloidal coomassie staining based LC-MS/MS analysis
reported_endpoint: pKd
pKd is defined as minus the log10 of a concentration measured in mol/L.

Input: Dear colleague, I am looking for the recorded pKd of the following compound: `CCNC(=O)C[C@@H]1N=C(c2ccc(Cl)cc2)c2cc(OC)ccc2-n2c(C)nnc21`
Output: 7.08
